B1: tRNA (parent)
chain: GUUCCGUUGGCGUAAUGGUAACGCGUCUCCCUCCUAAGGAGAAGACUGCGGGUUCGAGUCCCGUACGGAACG

Variants of: B1
PROCEDURE_TEXT: yeast fitness relative to wild type (ratio to wild type); higher = fitter; tRNA-Arg(CCU), competitive growth, 37 C, YPD
This sample holds only a part of the variants without activity.
PROPERTY_MEASURED: yeast fitness

C30A G52A A65U: ≤ 0.5

Record summary for C5G U26C A43G U47C U64A : reported yeast fitness = ≤ 0.5

Record summary for U3C A14U U16G U19A A42G C61G : reported yeast fitness = ≤ 0.5

Record summary for U2C U32G : reported yeast fitness = 0.674

Record summary for G17C C33G G48U : reported yeast fitness = ≤ 0.5

Record summary for U8C A15C A21U : reported yeast fitness = ≤ 0.5

Record summary for U26A C31G : reported yeast fitness = 0.942

Record summary for C5U G10A A20G A36U A43C C61G : reported yeast fitness = ≤ 0.5

Record summary for G10A U16A U28C A42C C66U : reported yeast fitness = ≤ 0.5

Record summary for C4U U16A A37U A65U : reported yeast fitness = ≤ 0.5

Record summary for C24G C30G G39A G52A C55U : reported yeast fitness = ≤ 0.5
